Reported values of Bliss excess for individual entries
# System: CL-11 (Colorectal Carcinoma)
# TEST SUMMARY: Bliss excess, mean over the matrix (fraction); higher = more synergy
REPORTED ENDPOINT: Bliss excess

>>> value_measured("COc1nnc2ccc(N3CCC(c4ccc(OCCN5CCN(C)C(=O)[C@H]5C)cc4)CC3)nn12 [AZD5153] + CCN(CCO)CCCOc1ccc2c(Nc3cc(CC(=O)Nc4cccc(F)c4)[nH]n3)ncnc2c1 [AZD2811] (first compound max 1 µM, 7x7, partner max 1 µM)")
-0.0529
>>> value_measured("Cc1c2c(nn1C)CSCc1cc(n(C)n1)CSc1cc(c3ccccc3c1)OCCCc1c(C(=O)O)n(C)c3c-2c(Cl)ccc13 [AZD5991] + C=CCn1c(=O)c2cnc(Nc3ccc(N4CCN(C)CC4)cc3)nc2n1-c1cccc(C(C)(C)O)n1 [AZD1775] (first compound max 1 µM, partner max 1 µM)")
-0.0112
>>> value_measured("NC1(C(=O)N[C@@H](CCO)c2ccc(Cl)cc2)CCN(c2ncnc3[nH]ccc23)CC1 [Capivasertib] + Cn1cnc2c(F)c(Nc3ccc(Br)cc3Cl)c(C(=O)NOCCO)cc21 [Selumetinib] (first compound max 10 µM, 7x7, partner max 10 µM)")
-0.0202
>>> value_measured("Cn1cnc2c(F)c(Nc3ccc(Br)cc3Cl)c(C(=O)NOCCO)cc21 [Selumetinib] + C=CCn1c(=O)c2cnc(Nc3ccc(N4CCN(C)CC4)cc3)nc2n1-c1cccc(C(C)(C)O)n1 [AZD1775] (first compound max 10 µM, partner max 1 µM)")
0.0024

* * *

# System: SAT (Head and Neck Carcinoma)
# TEST SUMMARY: Bliss excess, mean over the matrix (fraction); higher = more synergy
REPORTED ENDPOINT: Bliss excess

>>> value_measured("Cc1c2c(nn1C)CSCc1cc(n(C)n1)CSc1cc(c3ccccc3c1)OCCCc1c(C(=O)O)n(C)c3c-2c(Cl)ccc13 [AZD5991] + CC1(C)CCC(CN2CCN(c3ccc(C(=O)NS(=O)(=O)c4ccc(NCC5CCOCC5)c([N+](=O)[O-])c4)c(Oc4cnc5[nH]ccc5c4)c3)CC2)=C(c2ccc(Cl)cc2)C1 [Venetoclax] (first compound max 1 µM, 7x7, partner max 1 µM)")
0.0101
>>> value_measured("NC1(C(=O)N[C@@H](CCO)c2ccc(Cl)cc2)CCN(c2ncnc3[nH]ccc23)CC1 [Capivasertib] + Cn1cnc2c(F)c(Nc3ccc(Br)cc3Cl)c(C(=O)NOCCO)cc21 [Selumetinib] (first compound max 10 µM, 7x7, partner max 10 µM)")
0.0768
>>> value_measured("Cn1cnc2c(F)c(Nc3ccc(Br)cc3Cl)c(C(=O)NOCCO)cc21 [Selumetinib] + C[C@@H]1COCCN1C2=NC(=NC(=C2)C3(CC3)[S@](=N)(=O)C)C4=C5C=CNC5=NC=C4 [AZD6738] (first compound max 10 µM, 7x7, partner max 10 µM)")
0.0782

* * *

combination Emax reference
# Tested on: P30-OHK (B-Lymphoblastic Leukemia)
# TEST SUMMARY: combination Emax (second highest fraction inhibited in the dose matrix, 72 h); higher = more inhibition; extreme values may be limits of the assay
REPORTED ENDPOINT: combination Emax

>>> value_measured("COc1cccc(OCCCN)c1-c1cc(Nc2cnc(C#N)cn2)n[nH]1 [Prexasertib] + C=CCn1c(=O)c2cnc(Nc3ccc(N4CCN(C)CC4)cc3)nc2n1-c1cccc(C(C)(C)O)n1 [AZD1775] (first compound max 1 µM, partner max 1 µM)")
0.98
>>> value_measured("CCc1c2c(nc3ccc(O)cc13)-c1cc3c(c(=O)n1C2)COC(=O)[C@]3(O)CC [SN-38] + O=C(c1cc(Cc2n[nH]c(=O)c3ccccc23)ccc1F)N1CCN(C(=O)C2CC2)CC1 [Olaparib] (first compound max 0.3 µM, 7x7, partner max 10 µM)")
0.99
>>> value_measured("COc1cccc(OCCCN)c1-c1cc(Nc2cnc(C#N)cn2)n[nH]1 [Prexasertib] + O=C(c1cc(Cc2n[nH]c(=O)c3ccccc23)ccc1F)N1CCN(C(=O)C2CC2)CC1 [Olaparib] (first compound max 1 µM, 7x7, partner max 10 µM)")
0.991
>>> value_measured("CCc1c2c(nc3ccc(O)cc13)-c1cc3c(c(=O)n1C2)COC(=O)[C@]3(O)CC [SN-38] + CN(C)CCCOc1ccc(-c2ccc3ncc4c(c3c2)n(C2CCOCC2)c(=O)n4C)cn1 [AZD0156] (first compound max 0.3 µM, 7x7, partner max 1 µM)")
0.973
>>> value_measured("C[C@@H](c1ccc2nccn2c1)n1nnc2ncc(-c3cnn(C)c3)nc21 [Savolitinib] + CN(CC[C@H](CSC1=CC=CC=C1)NC2=C(C=C(C=C2)S(=O)(=O)NC(=O)C3=CC=C(C=C3)N4CCC(CC4)[C@H](C5=CC=CC=C5C6=CC=C(C=C6)Cl)O)S(=O)(=O)C(F)(F)F)CCO [AZD4320] (first compound max 1 µM, 7x7, partner max 1 µM)")
0.948
>>> value_measured("CC1(C)CCC(CN2CCN(c3ccc(C(=O)NS(=O)(=O)c4ccc(NCC5CCOCC5)c([N+](=O)[O-])c4)c(Oc4cnc5[nH]ccc5c4)c3)CC2)=C(c2ccc(Cl)cc2)C1 [Venetoclax] + CCN(CCO)CCCOc1ccc2c(Nc3cc(CC(=O)Nc4cccc(F)c4)[nH]n3)ncnc2c1 [AZD2811] (first compound max 1 µM, 7x7, partner max 1 µM)")
1
>>> value_measured("CC1(C)CCC(CN2CCN(c3ccc(C(=O)NS(=O)(=O)c4ccc(NCC5CCOCC5)c([N+](=O)[O-])c4)c(Oc4cnc5[nH]ccc5c4)c3)CC2)=C(c2ccc(Cl)cc2)C1 [Venetoclax] + Cn1cnc2c(F)c(Nc3ccc(Br)cc3Cl)c(C(=O)NOCCO)cc21 [Selumetinib] (first compound max 1 µM, 7x7, partner max 3 µM)")
0.303

Data provenance is the supplement of paper PMC11061612.
